Reference source: paper PMC8399014

Tested on: experimentally induced hyperlipidemic mouse model
procedure_text: Tyloxapol (Triton WR 1339)-induced hyperlipidemia
Assay type: in vivo, mice
condition_summary: 84 μmol/kg i.p.; 24 h after tyloxapol
Method: Acute hyperlipidemia was achieved, i.p., by the administration of tyloxapol (Triton WR 1339). The antihyperlipidemic effect of the tested compounds was evaluated as the decrease in total cholesterol (TC) and triglyceride (TG) levels in plasma 24 h after tyloxapol administration. The results are shown in Figure 4A,B. Compounds 9 and 10 reduced TC levels in plasma by 73% and 50%, respectively, and TG levels by 76% and 41%, respectively. […]
List of reduction of triglyceride (TG) levels in plasma values.
value_type: reduction of triglyceride (TG) levels in plasma

1. Cc1cccc(Nc2ccccc2COC(=O)c2cc(C(C)(C)C)c(O)c(C(C)(C)C)c2)c1C = 41%
2. Cc1c(Cl)cccc1Nc1ccccc1COC(=O)C1(C)CCc2c(C)c(O)c(C)c(C)c2O1 (stereo not shown) = 78%
3. COc1ccc2cc(C(C)COC(=O)C3(C)CCc4c(C)c(O)c(C)c(C)c4O3)ccc2c1 (stereo not shown) = 65%
4. Cc1cccc(Nc2ccccc2C(=O)OCc2cc(C(C)(C)C)c(O)c(C(C)(C)C)c2)c1C = 76%

----------
measured_on: soybean lipoxygenase (LOX-3) (Glycine max, UniProt P09186)
Sequence (P09186 1-857): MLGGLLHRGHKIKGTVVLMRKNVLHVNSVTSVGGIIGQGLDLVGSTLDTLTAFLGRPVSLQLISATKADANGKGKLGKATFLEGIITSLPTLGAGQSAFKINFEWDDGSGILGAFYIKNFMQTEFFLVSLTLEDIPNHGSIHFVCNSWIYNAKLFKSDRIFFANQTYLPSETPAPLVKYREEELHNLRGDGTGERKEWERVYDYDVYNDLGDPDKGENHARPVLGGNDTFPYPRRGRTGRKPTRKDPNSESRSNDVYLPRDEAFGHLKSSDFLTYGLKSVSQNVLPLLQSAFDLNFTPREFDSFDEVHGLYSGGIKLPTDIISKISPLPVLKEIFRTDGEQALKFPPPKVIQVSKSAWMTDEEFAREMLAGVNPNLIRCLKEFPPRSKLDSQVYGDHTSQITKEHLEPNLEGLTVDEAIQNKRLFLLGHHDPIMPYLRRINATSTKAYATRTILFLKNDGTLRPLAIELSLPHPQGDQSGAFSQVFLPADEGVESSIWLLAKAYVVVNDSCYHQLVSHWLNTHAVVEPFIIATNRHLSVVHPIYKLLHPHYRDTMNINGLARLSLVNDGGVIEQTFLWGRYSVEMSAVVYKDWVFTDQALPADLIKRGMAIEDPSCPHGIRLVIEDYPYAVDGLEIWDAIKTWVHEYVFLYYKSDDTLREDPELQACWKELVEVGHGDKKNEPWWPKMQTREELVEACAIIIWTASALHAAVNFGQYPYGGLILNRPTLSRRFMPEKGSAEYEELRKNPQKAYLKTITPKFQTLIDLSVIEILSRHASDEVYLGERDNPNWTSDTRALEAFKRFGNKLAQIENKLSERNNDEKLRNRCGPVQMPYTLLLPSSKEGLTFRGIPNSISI
procedure_text: Soybean lipoxygenase (LOX-3) inhibition
Format: biochemical
pIC50: −log10 of the molar value.
value_type: pIC50

1) COc1ccc2cc([C@H](C)C(=O)O)ccc2c1 [c, Naproxen, reference compound] = 4.60

----------
Listed here are compounds together with their documented pIC50.
measured_on: soybean lipoxygenase (LOX-3) (Glycine max, UniProt P09186)
Sequence (P09186 1-857): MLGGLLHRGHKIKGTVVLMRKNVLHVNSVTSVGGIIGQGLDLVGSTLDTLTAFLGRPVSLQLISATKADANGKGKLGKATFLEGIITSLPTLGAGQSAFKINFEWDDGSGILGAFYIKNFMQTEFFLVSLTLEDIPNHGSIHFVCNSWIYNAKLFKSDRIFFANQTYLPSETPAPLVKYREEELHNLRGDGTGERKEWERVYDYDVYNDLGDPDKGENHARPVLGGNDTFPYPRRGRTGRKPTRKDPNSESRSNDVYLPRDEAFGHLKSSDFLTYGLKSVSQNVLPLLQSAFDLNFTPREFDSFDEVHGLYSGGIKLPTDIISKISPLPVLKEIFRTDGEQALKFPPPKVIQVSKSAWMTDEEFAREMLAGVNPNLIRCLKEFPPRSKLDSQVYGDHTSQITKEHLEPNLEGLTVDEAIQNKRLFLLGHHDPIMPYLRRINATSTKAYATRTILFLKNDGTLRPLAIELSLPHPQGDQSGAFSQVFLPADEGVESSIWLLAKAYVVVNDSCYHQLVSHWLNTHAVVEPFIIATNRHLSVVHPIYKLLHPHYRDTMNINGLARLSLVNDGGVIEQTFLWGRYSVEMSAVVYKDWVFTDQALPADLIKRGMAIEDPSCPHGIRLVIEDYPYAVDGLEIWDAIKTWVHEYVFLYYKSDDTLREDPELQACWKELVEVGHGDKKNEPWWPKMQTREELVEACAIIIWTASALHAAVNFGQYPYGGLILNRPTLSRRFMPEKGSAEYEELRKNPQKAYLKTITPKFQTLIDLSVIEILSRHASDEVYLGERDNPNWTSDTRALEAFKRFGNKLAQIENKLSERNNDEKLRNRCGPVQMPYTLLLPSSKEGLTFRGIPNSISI
procedure_text: Soybean lipoxygenase (LOX-3) inhibition
Assay type: biochemical
condition_summary: after 5 min of incubation; sodium linoleate 100 μM, pH 9.0; read-out: IC50 Value on LOX-3
pIC50: −log10 of the molar value.
value_type: pIC50

1) CC(C)(C)c1cc(COC(=O)c2ccccc2Nc2cccc(C(F)(F)F)c2)cc(C(C)(C)C)c1O = 3.82
2) CC(C)Cc1ccc(C(C)C(=O)OCc2cc(C(C)(C)C)c(O)c(C(C)(C)C)c2)cc1 (stereo not drawn) = 4.66
3) CC(C)(C)c1cc(C(=O)OCc2ccccc2Nc2cccc(C(F)(F)F)c2)cc(C(C)(C)C)c1O = 3.82
4) COc1ccc2cc(C(C)CO)ccc2c1 (stereo not drawn) [d, 2-(6-methoxynaphthalen-2-yl)propan-1-ol, reference compound] = 4.54
5) Cc1cccc(Nc2ccccc2C(=O)OCc2cc(C(C)(C)C)c(O)c(C(C)(C)C)c2)c1C = 3.97
6) COc1ccc2cc(C(C)COC(=O)c3cc(C(C)(C)C)c(O)c(C(C)(C)C)c3)ccc2c1 (stereo not drawn) = 4.19
7) COc1ccc2c(c1)c(CC(=O)OCc1cc(C(C)(C)C)c(O)c(C(C)(C)C)c1)c(C)n2C(=O)c1ccc(Cl)cc1 = 4.17

----------
value_type: melting point

1) Cc1c(Cl)cccc1Nc1ccccc1COC(=O)c1cc(C(C)(C)C)c(O)c(C(C)(C)C)c1 = 141.1 to 141.8 °C
2) CC(C)(C)c1cc(COC(=O)c2ccccc2Nc2cccc(C(F)(F)F)c2)cc(C(C)(C)C)c1O = 87.2 to 88 °C
3) Cc1cccc(Nc2ccccc2COC(=O)c2cc(C(C)(C)C)c(O)c(C(C)(C)C)c2)c1C = 136.3 to 136.9 °C
4) CC(C)(C)c1cc(C(=O)OCc2ccccc2Nc2cccc(C(F)(F)F)c2)cc(C(C)(C)C)c1O = 119.9 to 120.5 °C
5) Cc1c(C)c2c(c(C)c1O)CCC(C)(C(=O)OCC(C)c1ccc(CC(C)C)cc1)O2 (stereo not shown) = 69.2 to 70 °C
6) CC(C)(C)c1cc(COC(=O)Cc2ccccc2Nc2c(Cl)cccc2Cl)cc(C(C)(C)C)c1O = 149 to 149.7 °C
7) COc1ccc2c(c1)c(CC(=O)OCc1cc(C(C)(C)C)c(O)c(C(C)(C)C)c1)c(C)n2C(=O)c1ccc(Cl)cc1 = 149.3 to 149.9 °C

----------
System: rat/mouse microsomal lipid peroxidation
procedure_text: Inhibition of microsomal lipid peroxidation
Type: biochemical, C57BL/6 mice
condition_summary: after 45 min of incubation; read-out: IC50 against microsomal lipid peroxidation
Below, each entry is listed with its recorded IC50.
value_type: IC50 (µM)

1) Cc1cccc(Nc2ccccc2C(=O)OCc2cc(C(C)(C)C)c(O)c(C(C)(C)C)c2)c1C = 5
2) CC(C)(C)c1cc(CO)cc(C(C)(C)C)c1O [BHBA, reference compound] = 10
3) CC(C)(C)c1cc(C(=O)O)cc(C(C)(C)C)c1O [BHB, 3,5-di-tert-butyl-4-hydroxybenzoic acid, reference compound] = 257
4) Cc1c(C)c2c(c(C)c1O)CCC(C)(C(=O)O)O2 (stereo not shown) [Trolox, reference compound] = 25

----------
measured_on: soybean lipoxygenase (LOX-3) (Glycine max, UniProt P09186)
Sequence (P09186 1-857): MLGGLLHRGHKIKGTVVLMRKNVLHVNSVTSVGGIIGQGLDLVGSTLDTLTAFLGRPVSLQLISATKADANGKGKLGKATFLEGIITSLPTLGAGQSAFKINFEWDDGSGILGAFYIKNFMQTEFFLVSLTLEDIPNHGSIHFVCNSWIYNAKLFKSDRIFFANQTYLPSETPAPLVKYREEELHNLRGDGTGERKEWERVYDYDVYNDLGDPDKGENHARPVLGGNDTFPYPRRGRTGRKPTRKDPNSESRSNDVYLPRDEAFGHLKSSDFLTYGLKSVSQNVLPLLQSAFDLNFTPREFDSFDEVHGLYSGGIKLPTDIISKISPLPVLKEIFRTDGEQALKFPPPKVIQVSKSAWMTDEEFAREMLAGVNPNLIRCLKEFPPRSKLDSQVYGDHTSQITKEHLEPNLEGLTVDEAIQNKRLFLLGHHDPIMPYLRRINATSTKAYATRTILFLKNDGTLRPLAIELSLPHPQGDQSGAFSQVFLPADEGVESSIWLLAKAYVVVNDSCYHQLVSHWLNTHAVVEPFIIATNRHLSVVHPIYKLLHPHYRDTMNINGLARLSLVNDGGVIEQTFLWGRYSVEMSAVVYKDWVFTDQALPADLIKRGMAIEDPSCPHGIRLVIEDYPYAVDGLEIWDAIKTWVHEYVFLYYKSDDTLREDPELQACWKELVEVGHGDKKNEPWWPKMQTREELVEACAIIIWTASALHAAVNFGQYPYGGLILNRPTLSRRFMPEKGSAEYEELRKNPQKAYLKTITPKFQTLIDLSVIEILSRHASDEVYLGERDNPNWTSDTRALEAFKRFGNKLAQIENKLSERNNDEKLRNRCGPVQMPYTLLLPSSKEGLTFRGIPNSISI
procedure_text: Soybean lipoxygenase (LOX-3) inhibition
Format: biochemical
condition_summary: after 5 min of incubation; sodium linoleate 100 μM, pH 9.0; read-out: IC50 Value on LOX-3
pIC50: −log10 of the molar value.
molecules and their reported pIC50
value_type: pIC50

1) COc1ccc2cc(C(C)COC(=O)C3(C)CCc4c(C)c(O)c(C)c(C)c4O3)ccc2c1 (stereo not shown) = 5.05
2) Cc1c(Cl)cccc1Nc1ccccc1COC(=O)C1(C)CCc2c(C)c(O)c(C)c(C)c2O1 (stereo not shown) = 4.27
3) Cc1cccc(Nc2ccccc2COC(=O)c2cc(C(C)(C)C)c(O)c(C(C)(C)C)c2)c1C = 4.82
4) CC(C)(C)c1cc(COC(=O)Cc2ccccc2Nc2c(Cl)cccc2Cl)cc(C(C)(C)C)c1O = 3.85
